- test target: human serum albumin (human) (UniProt P02768)
- Sequence (P02768 25-609 limits assumed): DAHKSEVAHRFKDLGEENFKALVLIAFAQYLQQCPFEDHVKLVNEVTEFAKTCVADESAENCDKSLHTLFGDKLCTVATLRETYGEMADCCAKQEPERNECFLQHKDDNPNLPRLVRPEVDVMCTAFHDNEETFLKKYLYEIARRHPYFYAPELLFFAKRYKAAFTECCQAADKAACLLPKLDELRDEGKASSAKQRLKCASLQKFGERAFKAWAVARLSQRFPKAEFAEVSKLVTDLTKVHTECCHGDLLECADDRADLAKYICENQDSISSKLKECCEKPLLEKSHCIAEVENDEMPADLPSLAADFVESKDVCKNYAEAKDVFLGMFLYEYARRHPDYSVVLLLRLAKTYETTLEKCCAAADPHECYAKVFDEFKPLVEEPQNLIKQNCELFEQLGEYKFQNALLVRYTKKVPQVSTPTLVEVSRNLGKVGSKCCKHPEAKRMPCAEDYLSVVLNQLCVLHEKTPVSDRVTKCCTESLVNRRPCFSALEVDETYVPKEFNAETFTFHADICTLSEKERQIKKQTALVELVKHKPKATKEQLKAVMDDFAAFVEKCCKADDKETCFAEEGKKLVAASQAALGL
- assay overview: ELISA, lysate on plate-bound antigen
test readout: ELISA HSA (RSU)
Please reply with the bare figure in RSU and do not write the unit itself.

ISOP121BR5P1D11 (designed binder, not shown: small tags and cut ends, FN3 domain; E. coli lysate in the ELISA) LPAPKNLVVSRVTEDSARLSWFNADEEYFDSFLIQYQESEKVGEAIVLTVPGSERSYDLTGLKPGTEYTVSIYGVYVRAVRFVSSNPLSAIFTT | 1120
ISOP194AR9P1C3 (designed binder, not shown: small tags and cut ends, FN3 domain; E. coli lysate in the ELISA) LPAPKNLVVSRVTQNSARLSWEWLEHFDSFLIHYQESEKVGEAIVLTVPGSERSYDLTGLKPGTEYTVSIYGVYQRKVEFHSNPLSAIFTT | 5920

// query Any idea what its ELISA HSA (RSU) is? The binder is ISOP121GR5P1B4 (designed binder, not shown: small tags and cut ends, FN3 domain; E. coli lysate in the ELISA) LPAPKNLIVSRVTEDSARLSWTAPDAAFDSFPINYGERATKGEAINLYVPGSERSYDLTGLKPGTEYWVLIGGVKGGLKSSPLWAWFTT
// result 560

// query Any idea what its ELISA HSA (RSU) is? The binder is ISOP194AR9P1D11 (designed binder, not shown: small tags and cut ends, FN3 domain; E. coli lysate in the ELISA) LPAPKNLVVSRVTEDSGRLSWQHHISFFDSFLIQYQESEKVGEAIVLTVPGSERSYDLTGLKPGTEYTVSIYGVYNRKVNFYSNPLSAIFTT
// result 12700

Data provenance: patent US20180162928A1
